- System: LXRb homodimer (NR concentration 270 nM)
- procedure summary: PBM binding z-score (relative to random genomic background probes); higher = stronger binding; sequences stand for … in GC…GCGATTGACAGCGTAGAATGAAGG
Would you please tag the item t when its PBM binding z-score is -0.3 or above, and f when it is below?

Would you please look over these solved cases?
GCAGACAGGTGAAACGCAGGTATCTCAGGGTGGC    f
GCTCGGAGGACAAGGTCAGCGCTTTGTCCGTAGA    f
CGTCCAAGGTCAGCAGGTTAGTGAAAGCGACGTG    f

Threshold query (PBM binding z-score >= -0.3) on `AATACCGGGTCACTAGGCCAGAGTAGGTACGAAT` t

And for `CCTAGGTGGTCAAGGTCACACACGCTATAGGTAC` ? t

Then `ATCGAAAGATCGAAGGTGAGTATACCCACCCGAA` ? f

The reported numbers originate from the supplement of paper PMC6555819.
